Origin of values: PubChem BioAssay

Test: FRG1 promoter luciferase signal modulators, primary screen, FRG1 inhibition for FSHD, cell-based, C2C12 myotubes, firefly/Renilla luciferase, luminescence (AID 1084)
Conditions: higher = more signal, called active from +8 up or from −8 down
Calls of active or inactive are those of the source.
Quick list: z-score per entry.
quantity: z-score

>  <compound>
CC(C)(C)N1C(=O)[C@H]2[C@H]3[C@H](O)[C@H](O)CC(=NNC(=O)OCc4ccccc4)[C@@H]3CC[C@H]2C1=O

>  <quantity>
z-score

>  <obs.value>
0.674 (inactive)

$$$$
>  <compound>
C[C@@H]1CC[C@@H](C(=O)O)N[C@H]1c1cccc(N2CCOCC2)c1

>  <quantity>
z-score

>  <obs.value>
-1.79 (inactive)

$$$$
>  <compound>
CC(C)[C@H](NC(=O)OC(C)(C)C)[C@@H](O)CC(=O)C(C)(C)C

>  <quantity>
z-score

>  <obs.value>
0.46 (inactive)

$$$$
>  <compound>
COc1ccc(COC(=O)NN=C2C[C@@H](O)[C@@H](O)[C@@H]3[C@@H]4C(=O)N(Cc5ccccc5)C(=O)[C@@H]4CC[C@@H]23)cc1

>  <quantity>
z-score

>  <obs.value>
0.364 (inactive)

$$$$
>  <compound>
C#CCCCON=C1C[C@@H](O)[C@@H](O)[C@@H]2[C@@H]3C(=O)N(C[C@@H]4CCCO4)C(=O)[C@@H]3CC[C@H]12

>  <quantity>
z-score

>  <obs.value>
0.164 (inactive)

$$$$
>  <compound>
CCCNC(=O)OC[C@H]1O[C@H](CCON=C2c3cc(OC)ccc3O[C@H](c3cccc(OC)c3)[C@H]2O)C=C[C@@H]1Oc1ccc(OC)cc1

>  <quantity>
z-score

>  <obs.value>
0.446 (inactive)

$$$$
>  <compound>
CC(CCN1CCCc2nc(C)c(C)cc21)=NO[C@@H](C)c1cn([C@H](CO)Cc2ccccc2)nn1

>  <quantity>
z-score

>  <obs.value>
-0.0338 (inactive)

$$$$
>  <compound>
COC(=O)CC=C[C@@H](C)[C@@H](C=NOC[C@@H](O)COCc1ccco1)NS(=O)(=O)c1ccc(C)cc1

>  <quantity>
z-score

>  <obs.value>
0.184 (inactive)

$$$$
>  <compound>
CO[C@H]1COC(=O)CC=C[C@H](C)[C@H](OC)COC(=O)[C@@H](C)NC(=O)CC=C[C@@H]1C

>  <quantity>
z-score

>  <obs.value>
0.484 (inactive)

$$$$
>  <compound>
CO[C@@H]1C=CCC(=O)N[C@@H](C)C(=O)OC[C@@H](OC)[C@H](C)C=CCC(=O)OC[C@H]1C

>  <quantity>
z-score

>  <obs.value>
-0.163 (inactive)

$$$$
>  <compound>
CC(C)[C@@H](OCc1ccccc1)[C@H](C)C=NO[C@H](C)c1cn([C@@H]2COC[C@H]2O)nn1

>  <quantity>
z-score

>  <obs.value>
0.476 (inactive)

$$$$
>  <compound>
COC(=O)[C@@H]1CC[C@H](C)[C@@H](c2ccc(Br)cc2)N1

>  <quantity>
z-score

>  <obs.value>
-0.382 (inactive)

$$$$
>  <compound>
COC(=O)[C@H](C)NC(=O)CCC1CC(OC(=O)NCCc2ccc(F)cc2)CC2(CCCC(COC(=O)NCc3ccccc3)O2)O1 (some centres undefined)

>  <quantity>
z-score

>  <obs.value>
1.61 (inactive)

$$$$
>  <compound>
CC(=O)OC[C@H]1O[C@H](CCON=C(C)CCN2CCCc3nc(C)c(C)cc32)C=C[C@@H]1OC(C)=O

>  <quantity>
z-score

>  <obs.value>
0.523 (inactive)

$$$$
